System: CP192
Experiment: qHTS profiling for inhibitors of Plasmodium falciparum proliferation (AID 504749); note: nearly all actives have a fitted effect of over 60% in size
Conditions: P. falciparum in erythrocytes, SYBR Green DNA, 72 h; series mostly up to 28.7 µM
Method: NIH National Institute of Allergy and Infectious Diseases [NIAID] NIH Chemical Genomics Center [NCGC] […] Because mature erythrocytes lack DNA, only Plasmodium-derived DNA is detected. NCGC Assay Protocol Summary: The SYBR Green viability assay was adapted from a method described previously (Plouffe et al., 2008). […] The following morning, fluorescence intensity at 485(14) nm excitation and 535(25) nm emission wavelengths was measured on an EnVision (Perkin Elmer) plate reader. […]
Results filed as inconclusive are left out. Active and inactive are the calls of the source. Calls come from the whole dose curve; as a rule, active = well fitted inhibition curve with a large enough effect; inconclusive = small, poorly fitted or top-dose-only effect; inactive = flat fitted curve, though single readings scatter.
Choose the fitting class; nothing outside true (1) = active, false (0) = inactive is accepted.

Cc1nc2ccccc2n1Cc1ccc(Cl)cc1 :: false (0)

stdin: In this assay, the call recorded for `C#C[C@]1(O)CC[C@H]2[C@@H]3CCc4cc(O)ccc4[C@H]3CC[C@@]21C` was what?
stdout: false (0)

stdin: In this assay, the call recorded for `COc1cc(/C=C/C(=O)N2CCN(CC(=O)N3CCCC3)CC2)cc(OC)c1OC` was what?
stdout: false (0)

stdin: In this assay, the call recorded for `[O-][n+]1ccccc1SSc1cccc[n+]1[O-]` was what?
stdout: true (1)

stdin: In this assay, the call recorded for `N=c1ccn2c(n1)O[C@H]1[C@H](O)[C@@H](CO)O[C@H]12` was what?
stdout: false (0)

stdin: In this assay, the call recorded for `O=C(O)c1cc(O)c(O)c(O)c1` was what?
stdout: false (0)

* * *

System: astro
Test: Drug repurposing screens with cells derived from glioblastoma tumor samples (AID 1345199); note: nearly all actives have a fitted effect of over 40% in size
Details: viability, ATP luminescence, 48 h; series mostly up to 45.9 µM
Inconclusive results are not listed. Activity calls are given as the source filed them. Calls come from the whole dose curve; as a rule, active = well fitted inhibition curve with a large enough effect; inconclusive = small, poorly fitted or top-dose-only effect; inactive = flat fitted curve, though single readings scatter.
Choose the fitting class; nothing outside active, inactive is accepted.

Example cases with answers are listed next.
CC[C@H]1OC(=O)[C@H](C)[C@@H](O[C@H]2C[C@@](C)(OC)[C@@H](O)[C@H](C)O2)[C@H](C)[C@@H](O[C@@H]2O[C@H](C)C[C@H](N(C)C)[C@H]2O)[C@](C)(O)C[C@@H](C)C(=O)[C@H](C)[C@@H](O)[C@]1(C)O :: inactive
O=C(CCN1CCN(CCO)CC1)N1c2ccccc2Sc2ccc(C(F)(F)F)cc21 :: inactive
CCCCC[C@H](O)/C=C/[C@@H]1[C@@H](C/C=C\CCCC(=O)O)[C@@H](O)C[C@H]1O :: inactive
CCCC(=O)OC[C@@H](OC(=O)CCC)[C@@H](OC(=O)CCC)[C@H](Cn1c2nc(=O)[nH]c(=O)c-2nc2cc(C)c(C)cc21)OC(=O)CCC :: inactive

stdin: In this assay, the call recorded for `O=C(OCc1ccccc1)c1ccccc1` was what?
stdout: inactive

stdin: In this assay, the call recorded for `Nc1ccc(C(=O)O)c(O)c1` was what?
stdout: inactive

stdin: In this assay, the call recorded for `CC1(C)S[C@@H]2[C@H](NC(=O)[C@H](N)c3ccc(O)cc3)C(=O)N2[C@H]1C(=O)O` was what?
stdout: inactive

stdin: In this assay, the call recorded for `CC1(C)S[C@@H]2[C@H](NC(=O)[C@H](NC(=O)N3CCN(S(C)(=O)=O)C3=O)c3ccccc3)C(=O)N2[C@H]1C(=O)O` was what?
stdout: inactive

* * *

Biological target: phosphoglycerate mutase (Leishmania major) (UniProt Q4Q090)
Assay: qHTS Validation Assay to Find Inhibitors of Phosphoglycerate Mutase (AID 504548)
Details: biochemical enzyme activity; inhibition qHTS; series mostly up to 57.5 µM
Records with an inconclusive call do not appear. Activity calls are given as the source filed them. Calls follow the shape of the dose curve; as a rule, active = well fitted curve in the direction sought with a large enough effect; inconclusive = small, poorly fitted or top-dose-only effect, or another doubt; inactive = no such curve, though single readings can be large or run the other way.
Choose the fitting class; nothing outside active, inactive is accepted.

stdin: In this assay, the call recorded for `O=[N+]([O-])c1ccc2c(c1)S(=O)(=O)C=C2` was what?
stdout: inactive

stdin: In this assay, the call recorded for `COc1cccc(C(=O)NCCN2CCN(c3ccc(Cl)cc3)CC2)c1` was what?
stdout: inactive

stdin: In this assay, the call recorded for `Cc1ccc(O)c(N=Nc2ccccc2)n1` was what?
stdout: active

* * *

Test: Cell Viability - SK-N-SH (AID 435);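 note: compound exposure lasted 40 h at 37 °C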
Conditions: SK-N-SH neuroblastoma cell viability qHTS
Results filed as inconclusive are left out. The source made the active and inactive calls. Calls follow the shape of the full dose curve.
Choose the fitting class; nothing outside Yes (active), No (inactive) is accepted.

COc1cc(CNC(=O)CCCC/C=C/C(C)C)ccc1O :: No
CC(C)NCC(O)COc1cccc2ccccc12 (stereo not given) :: No

stdin: In this assay, the call recorded for `COc1cc(/C=C/C(=O)CC(=O)/C=C/c2ccc(O)c(OC)c2)ccc1O` was what?
stdout: Yes

stdin: In this assay, the call recorded for CN(C)CCC(c1ccc(Cl)cc1)c1ccccn1 (stereo not given) was what?
stdout: No

stdin: In this assay, the call recorded for `S=c1[nH]c2ccccc2s1` was what?
stdout: No

* * *

Target: Papain (Carica papaya)
Experiment: Primary qHTS assay for inhibitors of the protease papain (AID 1645873);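 note: papain turnover of Z-FR-AMC read as the AMC fluorescence gain over 10 min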
Details: papain Z-FR-AMC cleavage, AMC fluorescence; series mostly up to 49.8 µM
Records with an inconclusive call do not appear. Activity calls are given as the source filed them. The call rests on the fitted dose curve; in most records, active means well fitted inhibition curve with a large enough effect; inconclusive means small, poorly fitted or top-dose-only effect; inactive means no such curve, though single readings can be large or run the other way.
Choose the fitting class; nothing outside active, inactive is accepted.

Example cases with answers are listed next.
NC(N)=NC(=O)c1nc(Cl)c(N2CCCCCC2)nc1N :: inactive
Cc1cc(NC2CCCCC2)nc(-n2nc(C)cc2C)n1 :: inactive
O=C(O)CC1CCCc2ccccc2C1O (configuration not stated) :: inactive
CSc1nc(N)c2ncn([C@@H]3O[C@H](COP(=O)(O)OP(=O)(O)OP(=O)(O)O)[C@@H](O)[C@H]3O)c2n1 :: inactive
COc1cc(C(O)CO)ccc1OS(=O)(=O)O (configuration not stated) :: inactive

stdin: In this assay, the call recorded for `CN(C)c1ccc(/C=C2\C(=O)Nc3ccccc32)cc1` was what?
stdout: inactive

stdin: In this assay, the call recorded for `Brc1c(Br)c(Br)c2n[nH]nc2c1Br` was what?
stdout: inactive

* * *

Test: Cell Viability - LYMP2-006 (AID 978);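 note: cells exposed to compound for 24 hours; nearly all actives have a fitted effect of over 60% in size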
Details: LYMP2-006 lymphoblastoid cell viability, qHTS; series mostly up to 92.2 µM
Inconclusive results are not listed. Calls of active or inactive are those of the source. Calls follow the shape of the dose curve; as a rule, active = well fitted cell-killing curve with a large enough effect; inconclusive = small, poorly fitted or top-dose-only effect; inactive = flat fitted curve, though single readings scatter.
Choose the fitting class; nothing outside active, inactive is accepted.

Example cases with answers are listed next.
O=c1cc(-c2ccccc2)oc2ccccc12 :: inactive
COc1cc(CNC(=O)CCCC/C=C/C(C)C)ccc1O :: inactive
S=c1[nH]c2ccccc2s1 :: inactive

stdin: In this assay, the call recorded for `CCCOC(=O)c1ccc(O)cc1` was what?
stdout: inactive

stdin: In this assay, the call recorded for `CC1(C)S[C@@H]2[C@H](NC(=O)[C@H](N)c3ccccc3)C(=O)N2[C@H]1C(=O)O` was what?
stdout: inactive

stdin: In this assay, the call recorded for `COc1cc(/C=C/C(=O)CC(=O)/C=C/c2ccc(O)c(OC)c2)ccc1O` was what?
stdout: active

* * *

System: CP194
Experiment: qHTS profiling for inhibitors of Plasmodium falciparum proliferation (AID 504749); note: nearly all actives have a fitted effect of over 60% in size
Conditions: P. falciparum in erythrocytes, SYBR Green DNA, 72 h; series mostly up to 28.7 µM
Inconclusive results are not listed. The source made the active and inactive calls. Calls follow the shape of the dose curve; as a rule, active = well fitted inhibition curve with a large enough effect; inconclusive = small, poorly fitted or top-dose-only effect; inactive = flat fitted curve, though single readings scatter. Where a SMILES comes first, the peptide text is derived from it. [ ]: non-standard residue; d: D form. pGlu = O=C1CC[C@@H](C(=O)O)N1; Thz = O=C(O)[C@@H]1CSCN1
Choose the fitting class; nothing outside YES = active, NO = inactive is accepted.

Example cases with answers are listed next.
c1ccc2sc(SN3CCOCC3)nc2c1 :: NO
CC1(C)[C@@H](O)CC[C@]2(C)[C@H]3C(=O)C=C4[C@@H]5C[C@@](C)(C(=O)O)CC[C@]5(C)CC[C@@]4(C)[C@]3(C)CC[C@@H]12 :: NO
COc1ccc(-c2cc(=S)ss2)cc1 :: NO
Clc1ccccc1-c1nc(-c2ccncc2)no1 :: NO
CCCCC[C@H](O)/C=C/[C@@H]1[C@@H](C/C=C\CCCC(=O)O)[C@@H](O)C[C@H]1O :: NO
Cc1ccc(O)c(-n2nc3ccccc3n2)c1 :: NO

stdin: In this assay, the call recorded for `Cc1c(Nc2ncccc2C(=O)O)cccc1C(F)(F)F` was what?
stdout: NO

stdin: In this assay, the call recorded for O=C1CC[C@@H](C(=O)N2CSC[C@H]2C(=O)O)N1 ([pGlu]-[Thz]-OH) was what?
stdout: NO

* * *

Target: Glutaminase kidney isoform, mitochondrial (Homo sapiens) (UniProt O94925)
Sequence (O94925 whole entry, looked up, canonical isoform): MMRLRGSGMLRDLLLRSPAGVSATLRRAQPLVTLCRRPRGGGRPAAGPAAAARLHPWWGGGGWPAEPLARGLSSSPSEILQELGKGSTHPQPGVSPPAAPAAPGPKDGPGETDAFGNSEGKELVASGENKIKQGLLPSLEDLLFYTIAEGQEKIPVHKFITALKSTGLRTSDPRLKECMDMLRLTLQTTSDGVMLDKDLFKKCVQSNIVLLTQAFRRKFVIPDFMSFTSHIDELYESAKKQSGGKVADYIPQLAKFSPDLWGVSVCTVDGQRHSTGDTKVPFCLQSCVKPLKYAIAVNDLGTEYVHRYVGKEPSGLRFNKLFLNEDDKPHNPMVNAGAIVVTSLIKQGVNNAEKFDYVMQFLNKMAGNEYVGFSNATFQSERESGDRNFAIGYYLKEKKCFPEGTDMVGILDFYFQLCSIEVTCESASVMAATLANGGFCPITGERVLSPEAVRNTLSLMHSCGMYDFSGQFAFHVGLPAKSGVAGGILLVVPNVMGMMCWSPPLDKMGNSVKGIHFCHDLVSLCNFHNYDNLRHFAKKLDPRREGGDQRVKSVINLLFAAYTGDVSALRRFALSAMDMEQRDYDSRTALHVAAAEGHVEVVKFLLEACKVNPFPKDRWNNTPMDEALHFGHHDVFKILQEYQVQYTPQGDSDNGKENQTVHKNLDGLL
Assay: qHTS for Inhibitors of Glutaminase (GLS): LOPAC Validation (AID 624146); note: nearly all actives have a fitted effect of over 60% in size
Settings: glutaminase enzyme activity inhibition; series mostly up to 46.1 µM
Inconclusive results are not listed. Calls of active or inactive are those of the source. The call rests on the fitted dose curve; in most records, active means well fitted inhibition curve with a large enough effect; inconclusive means small, poorly fitted or top-dose-only effect; inactive means no such curve, though single readings can be large or run the other way.
Choose the fitting class; nothing outside true (active), false (inactive) is accepted.

Example cases with answers are listed next.
O=C1O/C(=C/Br)CCC1c1cccc2ccccc12 (configuration not stated) :: false
NC[C@H]1O[C@@H](n2cnc3c(N)ncnc32)[C@H](O)[C@@H]1O :: false
O=C(O)CNC(=O)C(CS)Cc1ccccc1 (configuration not stated) :: false
Oc1ccccc1O :: true
CC(C)(C=O)Cc1cc(C(C)(C)C)c(O)c(C(C)(C)C)c1 :: true

stdin: In this assay, the call recorded for CCCCCC(O)c1cccc(OCc2ccc3ccccc3n2)c1 (configuration not stated) was what?
stdout: false

stdin: In this assay, the call recorded for `O=C1NC(=O)/C(=C/c2ccc3nccnc3c2)S1` was what?
stdout: false

stdin: In this assay, the call recorded for Cc1ccccc1CNc1ncnc2c1ncn2C1OC(CO)C(O)C1O (configuration not stated) was what?
stdout: false

stdin: In this assay, the call recorded for `O=[N+]([O-])c1ccc(CSc2ncnc3c2ncn3[C@@H]2O[C@H](CO)[C@@H](O)[C@H]2O)cc1` was what?
stdout: false

stdin: In this assay, the call recorded for `CN(C)c1ccc(/C=C2\C(=O)Nc3ccccc32)cc1` was what?
stdout: false

stdin: In this assay, the call recorded for `C[N+]1(C)CCC(OC(=O)C(c2ccccc2)c2ccccc2)CC1` was what?
stdout: false

stdin: In this assay, the call recorded for COc1cccc(OC)c1OCCNCC1COc2ccccc2O1 (configuration not stated) was what?
stdout: false

stdin: In this assay, the call recorded for `C[C@@H](NC(=O)/C(C#N)=C/c1ccc(O)c(O)c1)c1ccccc1` was what?
stdout: true

stdin: In this assay, the call recorded for CSc1ccccc1N1CCN(CCCCCC(=O)NC2CCCc3ccccc32)CC1 (configuration not stated) was what?
stdout: false

stdin: In this assay, the call recorded for `CNC(=O)[C@H]1O[C@@H](n2cnc3c(NCc4cccc(I)c4)ncnc32)[C@H](O)[C@@H]1O` was what?
stdout: false

stdin: In this assay, the call recorded for `Nc1ncnc2c1ncn2[C@@H]1O[C@H](COP(=O)(O)OP(=O)(O)OP(=O)(O)OP(=O)(O)OC[C@@H]2O[C@H](n3cnc4c(N)ncnc43)[C@@H](O)[C@H]2O)[C@@H](O)[C@H]1O` was what?
stdout: false

stdin: In this assay, the call recorded for `CCCCN1CCC(n2c(=O)[nH]c3ccccc32)CC1` was what?
stdout: false

stdin: In this assay, the call recorded for `O=Nc1ccc2oc(=O)ccc2c1` was what?
stdout: true

stdin: In this assay, the call recorded for `C=CC(=O)c1ccc(CCCCCC)cc1` was what?
stdout: false

stdin: In this assay, the call recorded for `CNc1ncnc2c1ncn2[C@@H]1O[C@H](CO)[C@@H](O)[C@H]1O` was what?
stdout: false

stdin: In this assay, the call recorded for `C=C[C@H]1CN2CC[C@@H]1C[C@@H]2[C@@H](O)c1ccnc2ccc(OC)cc12` was what?
stdout: false

stdin: In this assay, the call recorded for CN1C2CCC1CC(OC(=O)C(O)c1ccccc1)C2 (configuration not stated) was what?
stdout: false
